System: LOX IMVI
Assay: NCI tumour cell line growth inhibition, 48 h
Active and inactive are the calls of the source. No stated cut-off is given here; in the data, active = GI50 up to about 1.1 µM and inactive = higher.
GI50: recorded values

Asked: Notebook: pull reported GI50 for LOX IMVI, entry "N/C(=N\O)N/N=C/c1cc(Br)cc(Br)c1O"
Given back: 2.35 µM (inactive)

Asked: Then what about the molecule "O=C(NCc1ccccc1)c1cc2ccc(O)c(O)c2cn1" ?
Given back: 3.82 µM (inactive)

Asked: Then what about the molecule "COc1ccc(/C(=N/O)c2ccccc2-c2nc3ccccc3c(=O)n2-c2ccc(S(=O)(=O)Nc3ncccn3)cc2)cc1C" ?
Given back: > 10 µM (inactive)

Asked: Then what about the molecule "COc1cc(N(Cc2ccc3oc(=O)c(-c4ccccc4)nc3c2)Cc2ccc3oc(=O)c(-c4ccccc4)nc3c2)cc(OC)c1OC" ?
Given back: > 10 µM (inactive)

Asked: Then what about the molecule "Cc1cc2c(cc1-c1cc3c(cc1C)C(C(C)C)=C(O)C(=O)/C3=C\Nc1ccccn1)/C(=C/Nc1ccccn1)C(=O)C(O)=C2C(C)C" ?
Given back: 35.4 µM (inactive)
